Measured values drawn from BindingDB's records for doi:10.1021/jm9900321 for this set.

protocolDescription: Inhibition of platelet aggregation in human platelet rich plasma (PRP)
metric: IC50 (µM)

Solved cases below.
Supply reported IC50 belonging to this compound: Cc1cc(C)c(S(=O)(=O)N[C@@H](CNC(=O)C2=NOC(CCCCNc3cc4ccccc4cn3)C2)C(=O)O)c(C)c1 (stereo partly drawn)
11

Using known records, supply IC50 for Cc1cc(C)c(S(=O)(=O)N[C@@H](CNC(=O)C2=NOC(CCCc3cnc(N)[nH]3)C2)C(=O)O)c(C)c1 (stereo partly drawn)
0.28

Determine from records and report IC50 for Cc1cc(C)c(S(=O)(=O)N[C@@H](CNC(=O)C2=NOC(CCCCNc3nccc4ccccc34)C2)C(=O)O)c(C)c1 (stereo partly drawn)
78

Dear colleague, please send me the reported IC50 for O=C(NC[C@H](NS(=O)(=O)c1c(Cl)cccc1Cl)C(=O)O)C1=NOC(CCCCNc2ncc[nH]2)C1 (stereo partly drawn) when you can.
0.35

(A) Cc1cc(C)c(S(=O)(=O)N[C@H](CNC(=O)C2=NOC(CCCCNc3ncc[nH]3)C2)C(=O)O)c(C)c1 (stereo partly drawn)
(B) Cc1noc(C)c1S(=O)(=O)N[C@@H](CNC(=O)C1=NOC(CCCCNc2ncc[nH]2)C1)C(=O)O (stereo partly drawn)
(C) O=C(NC[C@H](NS(=O)(=O)c1ccc(-c2ccccc2)cc1)C(=O)O)C1=NOC(CCCCNc2ncc[nH]2)C1 (stereo partly drawn)
# rank_down: sort by IC50, max first Order the labels as requested and give them as your answer.
A, C, B
(A: 68 µM, C: 43 µM, B: 1.5 µM)

----------
studySystem: Integrin alpha-IIb/beta-3 (Homo sapiens, UniProt P08514+P05106)
Sequence (P05106 27-788 limits assumed): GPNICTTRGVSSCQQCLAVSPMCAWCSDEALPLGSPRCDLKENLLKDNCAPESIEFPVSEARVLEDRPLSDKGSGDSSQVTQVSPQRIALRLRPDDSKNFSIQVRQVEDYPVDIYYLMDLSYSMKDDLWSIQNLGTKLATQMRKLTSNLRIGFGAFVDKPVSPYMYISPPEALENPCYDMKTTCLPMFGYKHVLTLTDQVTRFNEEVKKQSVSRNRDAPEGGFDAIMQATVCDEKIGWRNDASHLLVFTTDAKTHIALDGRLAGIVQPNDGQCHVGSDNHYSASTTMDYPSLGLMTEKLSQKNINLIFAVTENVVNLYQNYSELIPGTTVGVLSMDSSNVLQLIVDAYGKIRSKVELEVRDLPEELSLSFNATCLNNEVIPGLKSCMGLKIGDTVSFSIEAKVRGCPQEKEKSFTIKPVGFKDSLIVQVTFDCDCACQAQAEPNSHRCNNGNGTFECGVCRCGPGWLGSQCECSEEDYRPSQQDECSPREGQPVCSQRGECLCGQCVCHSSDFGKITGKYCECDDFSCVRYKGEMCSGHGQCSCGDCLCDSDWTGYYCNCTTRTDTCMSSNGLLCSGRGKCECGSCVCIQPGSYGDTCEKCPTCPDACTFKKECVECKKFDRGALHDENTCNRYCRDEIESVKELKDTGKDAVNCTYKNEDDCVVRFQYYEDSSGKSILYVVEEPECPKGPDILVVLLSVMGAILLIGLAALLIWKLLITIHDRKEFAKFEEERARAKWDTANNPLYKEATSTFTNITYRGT
Sequence (P08514 32-887 limits assumed): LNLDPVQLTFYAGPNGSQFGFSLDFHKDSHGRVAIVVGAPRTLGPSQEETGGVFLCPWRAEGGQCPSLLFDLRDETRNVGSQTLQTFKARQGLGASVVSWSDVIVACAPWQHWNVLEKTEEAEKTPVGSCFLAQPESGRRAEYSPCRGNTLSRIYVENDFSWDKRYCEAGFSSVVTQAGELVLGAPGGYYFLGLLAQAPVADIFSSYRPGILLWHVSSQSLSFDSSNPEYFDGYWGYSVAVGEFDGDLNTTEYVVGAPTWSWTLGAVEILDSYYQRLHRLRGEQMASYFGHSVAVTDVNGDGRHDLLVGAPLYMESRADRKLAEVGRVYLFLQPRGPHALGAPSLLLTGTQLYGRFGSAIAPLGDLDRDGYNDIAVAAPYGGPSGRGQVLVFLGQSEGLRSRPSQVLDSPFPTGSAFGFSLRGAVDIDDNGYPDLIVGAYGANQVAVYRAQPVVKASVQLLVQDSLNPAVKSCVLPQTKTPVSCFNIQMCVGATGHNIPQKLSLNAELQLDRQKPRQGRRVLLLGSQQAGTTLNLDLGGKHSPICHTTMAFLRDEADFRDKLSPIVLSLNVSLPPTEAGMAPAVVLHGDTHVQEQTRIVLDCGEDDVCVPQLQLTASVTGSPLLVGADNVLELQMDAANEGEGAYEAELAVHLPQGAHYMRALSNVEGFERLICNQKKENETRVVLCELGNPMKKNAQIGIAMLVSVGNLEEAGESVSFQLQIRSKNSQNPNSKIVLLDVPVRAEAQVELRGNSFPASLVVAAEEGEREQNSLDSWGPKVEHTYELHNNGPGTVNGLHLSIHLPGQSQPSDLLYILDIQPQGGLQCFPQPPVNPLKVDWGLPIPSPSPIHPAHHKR
Sequence (P08514 891-1039 limits assumed): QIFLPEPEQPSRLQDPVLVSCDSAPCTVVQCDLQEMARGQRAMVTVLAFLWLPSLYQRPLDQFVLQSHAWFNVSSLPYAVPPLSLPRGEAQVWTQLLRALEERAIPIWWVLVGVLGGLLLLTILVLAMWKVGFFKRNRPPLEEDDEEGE
protocolDescription: Inhibition of platelet aggregation in human platelet rich plasma (PRP)
metric: IC50

Please list IC50 recorded for the compound O=C(N[C@@H](CNC(=O)C1=NOC(CCCCNc2ccccn2)C1)C(=O)O)OCc1ccccc1 (stereo partly specified)
> 100 µM

----------
protocolDescription: Inhibition of platelet aggregation in human platelet rich plasma (PRP)
pIC50: −log10 of the molar value.
metric: pIC50

Before answering, review these 4 worked examples.
Determine from records and report pIC50 for O=C(NC[C@H](NS(=O)(=O)c1c(Cl)cc(-c2ccccc2)cc1Cl)C(=O)O)C1=NOC(CCCCNc2ncc[nH]2)C1 (stereo partly drawn)
5.80

Please list pIC50 recorded for the compound "N=C(N)c1ccc(C2=NO[C@@H](CC(=O)NCCC(=O)O)C2)cc1"
6.62

Dear colleague, please send me the reported pIC50 for Cc1cc(C)c(S(=O)(=O)N[C@@H](CNC(=O)C2=NOC(CCCCNC(=N)N)C2)C(=O)O)c(C)c1 (stereo partly drawn) when you can.
6.80

Give me measured pIC50, please, for this compound: O=C(NC[C@H](NS(=O)(=O)c1ccccc1)C(=O)O)C1=NOC(CCCCNc2ccccn2)C1 (stereo partly drawn)
4.52

(A) Cc1cccc(Cl)c1S(=O)(=O)N[C@@H](CNC(=O)C1=NOC(CCCCNc2ncc[nH]2)C1)C(=O)O (stereo partly drawn)
(B) Cc1cc(-c2ccccc2)cc(C)c1S(=O)(=O)N[C@@H](CNC(=O)C1=NOC(CCCCNc2ncc[nH]2)C1)C(=O)O (stereo partly drawn)
(C) Cc1cc(C)c(S(=O)(=O)N[C@@H](CNC(=O)C2=NOC(CCNC(=O)Nc3ncc[nH]3)C2)C(=O)O)c(C)c1 (stereo partly drawn)
Put the items in sequence by pIC50, from largest down. Thanks in advance for listing the labels in the requested order.
A, B, C
(A: 6.41, B: 5.51, C: 3.92)

----------
studySystem: Integrin alpha-IIb/beta-3 (Homo sapiens, UniProt P08514+P05106)
protocolDescription: Inhibition of platelet aggregation in human gel-purified platelets containing fibrinogen (GPP+Fg).
metric: IC50 (nM)

# example entries with known answers
Please tell me the measured IC50 for O=C(NC[C@H](NS(=O)(=O)c1c(Cl)cccc1Cl)C(=O)O)C1=NOC(CCCCNc2ncc[nH]2)C1 (stereo partly drawn) ; system: Integrin alpha-IIb/beta-3 (Homo sapiens, UniProt P08514+P05106).
190

Report the value of IC50 obtained on Integrin alpha-IIb/beta-3 (Homo sapiens, UniProt P08514+P05106) for O=C(NC[C@H](NS(=O)(=O)c1cccc2ccccc12)C(=O)O)C1=NOC(CCCCNc2ncc[nH]2)C1 (stereo partly drawn) .
570

Write IC50 of Cc1cc(C)c(S(=O)(=O)N[C@@H](CNC(=O)C2=NOC(CCCCNc3cc4ccccc4cn3)C2)C(=O)O)c(C)c1 (stereo partly drawn) ; system used: Integrin alpha-IIb/beta-3 (Homo sapiens, UniProt P08514+P05106)
7700

(1) N=C(N)c1ccc(C2=NO[C@@H](CC(=O)NCCC(=O)O)C2)cc1
(2) O=C(NC[C@H](NS(=O)(=O)c1ccc(-c2ccccc2)cc1)C(=O)O)C1=NOC(CCCCNc2ncc[nH]2)C1 (stereo partly drawn)
Please compare: 1 and 2 . Report which one has the smaller IC50 value. Indicate which entry you chose by stating its label.
1

----------
Measured pIC50 of individual entries
studySystem: Integrin alpha-IIb/beta-3 (Homo sapiens, UniProt P08514+P05106)
protocolDescription: Inhibition of platelet aggregation in human gel-purified platelets containing fibrinogen (GPP+Fg).
pIC50: −log10 of the molar value.

Some solved entries appear below for comparison.
Fill in reported pIC50 for this entry: Cc1cc(C)c(S(=O)(=O)N[C@@H](CNC(=O)C2=NOC(CCCCNS(N)(=O)=O)C2)C(=O)O)c(C)c1 (stereo partly drawn)
< 4.00

Give reported pIC50 value for Cc1cc(C)c(S(=O)(=O)N[C@@H](CNC(=O)C2=NOC(CCCc3cnc(N)[nH]3)C2)C(=O)O)c(C)c1 (stereo partly drawn)
6.74

***
Specify reported pIC50 for the compound shown: Cc1cc(C)c(S(=O)(=O)N[C@@H](CNC(=O)C2=NOC(CCCC(=O)Nc3ncc[nH]3)C2)C(=O)O)c(C)c1 (stereo partly drawn)
< 4.00
